# experimental-protocol: ACEA_ER_80hr: ACEA Biosciences xCELLigence Real-Time Cell Analysis on Estrogen Receptor Agonism for Proliferation (AID 2282667)
# conditions: T47D proliferation, impedance (xCELLigence), 80 h
Inconclusive results are not listed. Active and inactive are the calls of the source. The calls were made as follows: active = hit-call score of the fitted dose curve at least 0.9, where 1 is the maximum; inconclusive = response in the unintended direction; inactive = score below 0.9.
Outcomes: T (active), F (inactive)

[[record]]
compound = "CCOCC(C)O (centres undefined)"
qualitative_label = "F"

[[record]]
compound = "CC12CCC(C1)C(C)(C)C2O (centres undefined)"
qualitative_label = "F"

[[record]]
compound = "Cc1cccc(O)c1"
qualitative_label = "F"

[[record]]
compound = "CCCCCCC(O)CCOC(C)=O (centres undefined)"
qualitative_label = "F"

[[record]]
compound = "CCC(C)(C)C1CCC(=O)CC1"
qualitative_label = "F"

[[record]]
compound = "O=C(O)C(F)(F)OC(F)(F)C(F)(F)OC(F)(F)C(F)(F)C(F)(F)C(F)(F)F"
qualitative_label = "F"

[[record]]
compound = "Cc1ccc(C(C)(C)O)cc1"
qualitative_label = "F"

[[record]]
compound = "O=S(=O)(O)C(F)(F)C(F)(F)OC(F)(F)C(F)(F)F"
qualitative_label = "F"

[[record]]
compound = "CC(=N[Si](C)(C)C)O[Si](C)(C)C"
qualitative_label = "T"

[[record]]
compound = "O=C(O)c1cc(C(=O)O)c(C(=O)O)cc1C(=O)O"
qualitative_label = "F"

[[record]]
compound = "CC(C)C(=O)OCC=Cc1ccccc1"
qualitative_label = "F"

[[record]]
compound = "CC1(C)[C@H](C=C(Cl)Cl)[C@H]1C(=O)OCc1cccc(Oc2ccccc2)c1"
qualitative_label = "F"

[[record]]
compound = "CCCCOCCOCCOCCO"
qualitative_label = "F"

[[record]]
compound = "CCCCCCCCCCCCN1CCOCC1"
qualitative_label = "F"

